Target: T1, CD137 protein (UniProt Q07011 24-186, limits assumed)
T1 construct: also called CD137 antigen; CD137 receptor
T1 sequence (Q07011 24-186 limits assumed): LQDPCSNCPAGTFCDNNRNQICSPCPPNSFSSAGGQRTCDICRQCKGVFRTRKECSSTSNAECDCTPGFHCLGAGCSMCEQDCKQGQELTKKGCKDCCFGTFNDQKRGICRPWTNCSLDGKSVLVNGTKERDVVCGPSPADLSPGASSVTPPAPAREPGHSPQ
Assay: BLI (Octet Red 96), antibody on anti-human Fc sensors, CD137 protein in solution, 1:1 model
Attribute: kon
// note: answer is a bare numeric in M⁻¹ s⁻¹

Binder	Result
humanized anti-CD137 antibody clone 3714 (IgG4 S228P/kappa) (antibody, V domains shown) VH: QVQLVQSGAEVVKPGASVKVSCKASGYTFAGFEMHWVRQAPGQGLGWMGAIDPKTGGTDYNQKFKDRVTMTADTSISTAYMELSRLRSDDTAVYYCTRDLGYFDVWGQGTLVTVSS VL: DIQMTQSPSSLSASVGDRVTITCRASQDIRSNLNWYQQKPGKAPKLLIYYTSRLHSGVPSRFSGSGSGTDFTLTISSLQPEDFATYYCQQSEKLPRTFGGGTKVEIRR	130000
humanized anti-CD137 antibody clone 3718 (IgG4 S228P/kappa) (antibody, V domains shown) VH: QVQLVQSGAEVVKPGASVKLSCKASGYTFAGFEMHWIRQAPGQGLGWIGAIDPKTGGTDYNQKFKDRATLTADTSISTAYMELSRLRSDDTAVYYCTRDLGYFDVWGQGTLVTVSS VL: DIQMTQSPSSLSASVGDRVTITCRASQDIRSNLNWYQQKPGGAVKLLIYYTSRLHSGVPSRFSGSGSGTDYTLTISSLQPEDFATYFCQQSEKLPRTFGGGTKVEIRR	310000

Asked: Fill in the blank: the reported kon of humanized anti-CD137 antibody clone 3711 (IgG4 S228P/kappa) (antibody, V domains shown) VH: QVQLVQSGAEVKKPGASVKVSCKASGYTFAGFEMHWVRQAPGQGLEWMGAIDPKTGGTDYNQKFKDRVTMTRDTSISTAYMELSRLRSDDTAVYYCARDLGYFDVWGQGTLVTVSS VL: DIQMTQSPSSLSASVGDRVTITCRASQDIRSNLNWYQQKPGKAPKLLIYYTSRLHSGVPSRFSGSGSGTDFTLTISSLQPEDFATYYCQQSEKLPRTFGGGTKVEIRR is ____.
Given back: 190000
